# Experimental Protocol: SOD activity, xanthine/xanthine oxidase with NBT detection
# Assay type: biochemical
# Details: read-out: SOD IC50, 10 μM NBT, pH 7.8, 25 °C
Value Kind: IC50 (µM)
The answer is to be given in µM; state only the numeric part.

Q: Name the reported IC50 value associated with the molecule C1=Cc2nc1cc1ccc([n-]1)c(C1CC1)c1nc(cc3ccc([n-]3)c2C2CC2)C=C1.CC(=O)[O-].[Mn+3]
Result: 1.73
